Biological target: LlFpg WT (Lactococcus lactis) (UniProt P42371)
Sequence: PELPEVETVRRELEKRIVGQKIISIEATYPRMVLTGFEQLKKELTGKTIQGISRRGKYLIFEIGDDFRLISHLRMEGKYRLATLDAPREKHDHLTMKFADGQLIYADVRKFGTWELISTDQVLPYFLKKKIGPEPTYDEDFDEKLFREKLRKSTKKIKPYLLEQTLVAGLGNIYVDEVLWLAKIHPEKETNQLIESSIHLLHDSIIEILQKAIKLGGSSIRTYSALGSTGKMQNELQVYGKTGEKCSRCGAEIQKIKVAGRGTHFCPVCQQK
Assay: EMSA
Details: apparent Kd; without DMSO; N at position 7 of strand 1 = tetrahydrofuran (THF) abasic site analogue, opposite C; EMSA: 0.1 nM 32P-labelled 14-mer THF-DNA, 0-16 nM LlFpg (2 nM in 2TX assays), 20 min at 4 C / on ice, with or without 8% DMSO; buffer and pH as in cited …
testReadout: Kd (nM)
Express it in nM; write the number only.

I'd like to know its Kd. The sequence in question is CTCTTTNTTTCTCG / GCGAGAAACAAAGA [14-mer THF-DNA]
10

Reference for the values: paper PMC4176347
